measured.target: Chromo domain-containing protein 1 (Saccharomyces cerevisiae (strain ATCC 204508 / S288c) (Baker's yeast)) (UniProt P32657)
Sequence (P32657 whole entry, the tested form may be a part): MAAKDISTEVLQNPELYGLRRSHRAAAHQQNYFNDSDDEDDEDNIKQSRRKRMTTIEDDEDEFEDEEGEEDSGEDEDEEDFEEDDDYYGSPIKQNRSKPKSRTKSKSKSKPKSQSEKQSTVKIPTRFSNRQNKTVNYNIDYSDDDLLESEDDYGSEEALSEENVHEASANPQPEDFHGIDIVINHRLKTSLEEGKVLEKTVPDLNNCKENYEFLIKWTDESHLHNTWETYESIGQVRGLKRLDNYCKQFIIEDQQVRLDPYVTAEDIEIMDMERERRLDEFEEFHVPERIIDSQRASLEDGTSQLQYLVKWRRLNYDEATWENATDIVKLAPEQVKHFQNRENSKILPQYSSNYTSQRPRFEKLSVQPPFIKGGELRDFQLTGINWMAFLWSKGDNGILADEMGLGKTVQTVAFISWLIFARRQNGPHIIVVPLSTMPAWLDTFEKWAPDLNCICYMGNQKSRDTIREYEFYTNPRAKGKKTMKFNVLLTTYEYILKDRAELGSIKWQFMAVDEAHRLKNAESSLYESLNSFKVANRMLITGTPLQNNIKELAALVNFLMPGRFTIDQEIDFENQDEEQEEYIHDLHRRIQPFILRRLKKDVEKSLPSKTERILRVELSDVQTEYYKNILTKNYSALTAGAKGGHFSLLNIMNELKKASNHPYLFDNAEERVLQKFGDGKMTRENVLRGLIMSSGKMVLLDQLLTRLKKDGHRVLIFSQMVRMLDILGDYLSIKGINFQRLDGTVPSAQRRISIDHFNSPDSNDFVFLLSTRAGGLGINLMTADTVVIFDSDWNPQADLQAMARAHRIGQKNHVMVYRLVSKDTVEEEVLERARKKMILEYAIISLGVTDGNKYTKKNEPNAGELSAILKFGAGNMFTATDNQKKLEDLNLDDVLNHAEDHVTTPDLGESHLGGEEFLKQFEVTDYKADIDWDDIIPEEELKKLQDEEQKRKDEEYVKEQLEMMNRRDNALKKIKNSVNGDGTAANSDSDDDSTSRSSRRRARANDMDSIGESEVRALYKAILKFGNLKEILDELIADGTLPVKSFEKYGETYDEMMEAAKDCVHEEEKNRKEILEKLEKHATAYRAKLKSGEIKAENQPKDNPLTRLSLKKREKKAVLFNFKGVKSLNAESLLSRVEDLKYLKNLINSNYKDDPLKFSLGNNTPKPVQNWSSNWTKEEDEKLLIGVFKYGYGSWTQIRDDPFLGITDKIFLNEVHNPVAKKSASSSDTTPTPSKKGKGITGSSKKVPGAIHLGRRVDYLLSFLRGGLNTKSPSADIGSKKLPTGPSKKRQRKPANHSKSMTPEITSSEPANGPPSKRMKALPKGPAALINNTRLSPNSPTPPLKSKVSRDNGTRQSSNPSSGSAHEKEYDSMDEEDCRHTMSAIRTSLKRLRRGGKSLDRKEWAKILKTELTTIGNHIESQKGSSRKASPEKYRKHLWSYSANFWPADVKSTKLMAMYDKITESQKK
test.method.notes: ScCHD-1 Enzyme Inhibition Assay
Format: functional
Set-up: scale not given: in the data most compounds retested in dose-response had high values
conditions: 30 µM

- molecule: "c1cncc(CO[C@H]2CC[C@H]3[C@@H]2OCCN3C2CCOCC2)c1"
  Percent Effect [%]: 1.15
- molecule: "NC(=O)CN1CCCN(C(=O)Cc2ccc3c(c2)OCO3)CC1"
  Percent Effect [%]: -7.19
- molecule: "Cc1ccc(N2CCO[C@H]3CN(Cc4ccncc4)C[C@H]32)nn1"
  Percent Effect [%]: -5.13
- molecule: "O=C(Cc1ccccc1)N1CCN(Cc2noc(C3CC3)n2)CC1"
  Percent Effect [%]: -22.4
- molecule: "C[C@H]1C(=O)NC[C@H]2CN(Cc3ccccc3)C[C@H]21"
  Percent Effect [%]: 0.883
- molecule: "CCN(CC)C(=O)c1ccc(NC(=O)CNc2ccc(Br)cc2F)cc1"
  Percent Effect [%]: -13
- molecule: "COc1ccccc1OCC(=O)N1CCN(Cc2noc(C)n2)CC1"
  Percent Effect [%]: -7.11
- molecule: "O=C1N(c2cncnc2)CCC12CCCN(Cc1ccccn1)C2 (stereo unspecified)"
  Percent Effect [%]: 0.251
- molecule: "CN1CCC2(COCc3cnc(N4CCOCC4)nc32)C1 (stereo unspecified)"
  Percent Effect [%]: -1.41
- molecule: "NCC1[C@H]2CN(CCc3ccccc3)C[C@@H]12 (stereo partly specified)"
  Percent Effect [%]: -10.2
- molecule: "CCN(Cc1cccnc1)CC1CCCO1 (stereo unspecified)"
  Percent Effect [%]: -3.4
- molecule: "Cc1cccc(CN2CC[C@@H]3[C@@H]2CCN3C(=O)c2ccno2)n1"
  Percent Effect [%]: 94
- molecule: "O=C(c1cscn1)N1CCN2C[C@H](OCc3cccnc3)C[C@H]2C1"
  Percent Effect [%]: 1.28
- molecule: "O=C(c1cc(-n2cnnn2)ccc1Cl)N1CCC2(CC1)OCCO2"
  Percent Effect [%]: -4.14
- molecule: "CC(=O)N1CCN(Cc2ccccn2)CC2(CC(=O)N(C)C2)C1 (stereo unspecified)"
  Percent Effect [%]: -1.54
- molecule: "O=C(CC1CC1)N[C@@H]1CN(Cc2ccncc2)C[C@@H]2CCCO[C@@H]21"
  Percent Effect [%]: -4.5
- molecule: "Fc1cnc(N2CCCC3(CCN(Cc4ccsc4)C3)C2)nc1 (stereo unspecified)"
  Percent Effect [%]: 14.2
- molecule: "CC(c1ccc(F)cc1)N1CCN(Cc2ccc(C#N)cc2)CC1 (stereo unspecified)"
  Percent Effect [%]: -5.01
- molecule: "COCc1cncc2c1CCN(Cc1ccccn1)C2"
  Percent Effect [%]: 1.79
- molecule: "O=C(Cc1ccc(O)c(Cl)c1)N1CCN(CC2CC2)[C@@H]2CS(=O)(=O)C[C@@H]21"
  Percent Effect [%]: -1.95
- molecule: "CCOCC(O)CN1CCN(C(=O)Cc2ccc(C)nc2)CC1 (stereo unspecified)"
  Percent Effect [%]: -5.52
